# Measured on: αvβ6 (Homo sapiens, UniProt P06756+P18564)
# Sequence (P06756 31-992 limits assumed): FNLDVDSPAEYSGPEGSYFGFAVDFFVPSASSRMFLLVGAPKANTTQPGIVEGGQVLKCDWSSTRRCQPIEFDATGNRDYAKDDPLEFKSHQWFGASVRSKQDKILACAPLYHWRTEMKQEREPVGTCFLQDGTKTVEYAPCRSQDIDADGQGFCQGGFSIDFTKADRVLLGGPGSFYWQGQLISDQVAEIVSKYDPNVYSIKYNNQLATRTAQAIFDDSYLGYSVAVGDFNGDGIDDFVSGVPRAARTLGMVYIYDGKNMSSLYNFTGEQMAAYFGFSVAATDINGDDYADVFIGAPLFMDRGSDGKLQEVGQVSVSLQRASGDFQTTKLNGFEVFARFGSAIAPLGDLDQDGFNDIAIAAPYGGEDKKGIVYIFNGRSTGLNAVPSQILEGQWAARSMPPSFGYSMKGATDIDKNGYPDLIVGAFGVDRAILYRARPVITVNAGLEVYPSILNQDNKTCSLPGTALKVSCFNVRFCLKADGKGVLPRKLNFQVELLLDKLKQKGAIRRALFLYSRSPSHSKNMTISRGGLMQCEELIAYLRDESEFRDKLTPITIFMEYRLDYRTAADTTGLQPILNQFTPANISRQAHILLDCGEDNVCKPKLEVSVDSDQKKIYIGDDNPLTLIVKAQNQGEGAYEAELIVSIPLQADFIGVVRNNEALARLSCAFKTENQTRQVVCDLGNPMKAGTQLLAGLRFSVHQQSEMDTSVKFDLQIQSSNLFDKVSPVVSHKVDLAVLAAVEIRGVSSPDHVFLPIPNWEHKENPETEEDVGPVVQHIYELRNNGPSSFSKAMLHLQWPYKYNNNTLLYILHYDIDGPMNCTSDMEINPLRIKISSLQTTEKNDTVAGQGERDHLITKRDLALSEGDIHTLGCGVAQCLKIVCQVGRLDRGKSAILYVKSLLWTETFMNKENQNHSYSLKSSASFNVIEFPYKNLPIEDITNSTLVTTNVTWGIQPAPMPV
# Sequence (P18564 22-707 limits assumed): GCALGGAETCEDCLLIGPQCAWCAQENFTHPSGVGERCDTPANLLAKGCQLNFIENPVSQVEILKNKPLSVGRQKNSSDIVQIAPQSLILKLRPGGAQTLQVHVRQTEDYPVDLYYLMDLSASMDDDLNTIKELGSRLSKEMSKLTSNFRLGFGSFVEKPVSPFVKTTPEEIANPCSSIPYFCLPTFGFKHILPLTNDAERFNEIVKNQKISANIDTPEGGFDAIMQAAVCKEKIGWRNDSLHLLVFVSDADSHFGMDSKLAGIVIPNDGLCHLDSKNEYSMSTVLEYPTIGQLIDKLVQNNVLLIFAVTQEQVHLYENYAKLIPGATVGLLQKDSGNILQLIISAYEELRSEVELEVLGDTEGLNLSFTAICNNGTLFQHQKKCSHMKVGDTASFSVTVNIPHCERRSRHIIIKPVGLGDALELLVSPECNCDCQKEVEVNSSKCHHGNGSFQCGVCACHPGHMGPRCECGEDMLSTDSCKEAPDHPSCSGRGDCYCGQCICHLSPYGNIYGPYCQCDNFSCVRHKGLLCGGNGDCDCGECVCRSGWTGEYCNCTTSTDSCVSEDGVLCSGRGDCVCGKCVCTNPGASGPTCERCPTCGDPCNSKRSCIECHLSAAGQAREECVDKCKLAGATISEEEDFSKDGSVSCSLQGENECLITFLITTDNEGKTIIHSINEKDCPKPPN
# Experiment: Solid Phase Integrin αvβ6 Assay
pIC50: −log10 of the molar value.
Measured property: pIC50

pIC50 reading for O=C(O)C[C@@H](NC(=O)[C@@H]1CCCN(CCCc2ccc3c(n2)NCCC3)C1)c1cc(C2CC2)ccc1F : > 7.00

For O=C(O)[C@](O)(CO[C@@H]1CCCN(Cc2ccc3c(n2)NCCC3)C1)c1ccccc1 the molecule record lists pIC50 as < 6.00

So, CC1(C)CN(c2cc(Cl)cc(C(CO[C@@H]3CCCN(CCCc4ccc5c(n4)NCCC5)C3)CC(=O)O)c2)CCO1 (stereo partly shown) ? Its pIC50 was > 7.00

The molecule listed as O=C(NC1([C@@H](C(=O)O)c2cccc(-c3ccccc3)c2)CC1)[C@@H]1CCCN(CCCc2ccc3c(n2)NCCC3)C1 shows pIC50 equal to < 6.00

---

Catalogue of pIC50 values
# Measured on: αvβ6 (Homo sapiens, UniProt P06756+P18564)
# Experiment: Solid Phase Integrin αvβ6 Assay
pIC50: −log10 of the molar value. Structures can show the parent of a compound that is named as a salt.

Compound	pIC50
O=C(O)C[C@H](CO[C@@H]1CCCN(CCCCc2ccc3c(n2)NCCC3)C1)c1ccccc1	6.00 to 7.00
O=C(O)CC(NC(=O)[C@@H]1CCCN(CCCc2ccc3c(n2)NCCC3)C1)c1ccc2c(c1)OCC2 (stereo partly drawn) [Compound 217, hydrochloride]	> 7.00
O=C(O)C[C@@H](NC(=O)[C@@H]1CCCN(CCCc2ccc3c(n2)NCCC3)C1)c1ccc2nccnc2c1	> 7.00
O=C(O)C[C@H](NC(=O)[C@@H]1CCCN(CCCc2ccc3c(n2)NCCC3)C1)c1cccc(N2CCCCC2)c1 [Compound 232, hydrochloride]	> 7.00

Consider O=C(O)C[C@@H](NC(=O)[C@@H]1CCCN(CCCc2ccc3c(n2)NCCC3)C1)c1ccc(F)c(C2CC2)c1 . Its measured pIC50 is > 7.00

GET /value?item= O=C(NC[C@@H](Nc1cncc(-c2ccccc2)c1)C(=O)O)[C@@H]1CCCN(CCCc2ccc3c(n2)NCCC3)C1 &field=pIC50 returns > 7.00

Sample O=C(NC[C@@H](C(=O)O)c1ccccc1)[C@@H]1CCCN(CCCc2ccc3c(n2)NCCC3)C1 ; pIC50 observed: > 7.00

response.value for O=C(NC[C@H](C(=O)O)c1cccc(-c2cccc(C(F)(F)F)c2)c1)[C@@H]1CCCN(CCCc2ccc3c(n2)NCCC3)C1 (field: pIC50) = > 7.00

Query O=C(O)C[C@@H](NC(=O)[C@@H]1CCCN(CCCc2ccc3c(n2)NCCC3)C1)c1cccc(C(F)(F)F)c1 (single isomer, unassigned) [Compound 203-B, hydrochloride] yields pIC50 of > 7.00

In plain terms, O=C(O)[C@@H](c1ccccc1)[C@@H](O)CO[C@@H]1CCCN(CCCc2ccc3c(n2)NCCC3)C1 has a documented pIC50 of < 6.00

---

# Measured on: αvβ1 (Homo sapiens, UniProt P05556+P06756)
# Sequence (P05556 21-728 limits assumed, one chain of several): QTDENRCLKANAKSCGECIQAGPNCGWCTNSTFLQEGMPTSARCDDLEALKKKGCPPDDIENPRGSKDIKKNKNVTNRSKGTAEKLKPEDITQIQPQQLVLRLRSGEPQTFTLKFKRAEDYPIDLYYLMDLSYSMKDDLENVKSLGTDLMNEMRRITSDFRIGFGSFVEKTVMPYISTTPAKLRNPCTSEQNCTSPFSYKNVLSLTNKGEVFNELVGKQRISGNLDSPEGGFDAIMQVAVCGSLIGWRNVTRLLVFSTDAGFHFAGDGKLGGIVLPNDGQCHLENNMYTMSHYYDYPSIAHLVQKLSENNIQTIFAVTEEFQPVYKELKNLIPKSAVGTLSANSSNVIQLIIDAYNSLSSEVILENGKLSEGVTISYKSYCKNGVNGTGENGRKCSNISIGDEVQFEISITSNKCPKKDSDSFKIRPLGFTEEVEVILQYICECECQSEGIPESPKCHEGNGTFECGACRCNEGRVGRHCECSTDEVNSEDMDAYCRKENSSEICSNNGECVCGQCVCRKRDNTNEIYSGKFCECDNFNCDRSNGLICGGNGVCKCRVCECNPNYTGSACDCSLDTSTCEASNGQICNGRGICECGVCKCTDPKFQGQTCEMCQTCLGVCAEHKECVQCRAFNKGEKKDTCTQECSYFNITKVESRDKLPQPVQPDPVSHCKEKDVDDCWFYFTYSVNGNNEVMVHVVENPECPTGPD
# Experiment: Solid Phase Integrin αvβ1 Assay
pIC50: −log10 of the molar value.
Measured property: pIC50

Answered cases to consult:
Compound	Measured property	Endpoint result
O=C(O)[C@@H](CO[C@@H]1CCCN(CCCCc2ccc3c(n2)NCCC3)C1)c1ccccc1	pIC50	< 6.00
O=C(NC[C@H](Nc1cc(C(F)(F)F)ncn1)C(=O)O)[C@@H]1CCCN(CCCc2ccc3c(n2)NCCC3)C1	pIC50	> 7.00
CN(C[C@@H](CC(=O)O)c1ccccc1)[C@@H]1CCCN(CCCc2ccc3c(n2)NCCC3)C1	pIC50	6.00 to 7.00
O=C(CC[C@@H](NC(=O)C12CCC(CC1)CC2)C(=O)O)N[C@H]1CCN(CCCCc2ccc3c(n2)NCCC3)C1	pIC50	< 6.00
CC1(C)CCCN(c2cccc([C@@H](CO[C@@H]3CCCN(CCCc4ccc5c(n4)NCCC5)C3)CC(=O)O)c2)C1	pIC50	> 7.00

// pIC50 value for O=C(N[C@@H](CNC(=O)[C@@H]1CCCN(CCCc2ccc3c(n2)NCCC3)C1)C(=O)O)c1nnc(C2CC2)o1 : > 7.00

Lab note: O=C(CC[C@H](C(=O)O)c1ccccc1)N[C@H]1CCN(CCCCc2ccc3c(n2)NCCC3)C1 [Compound 422] gave pIC50 of < 6.00

---

# Measured on: αvβ6 (Homo sapiens, UniProt P06756+P18564)
# Experiment: Solid Phase Integrin αvβ6 Assay
pIC50: −log10 of the molar value.
pIC50 overview

// known answers, use as guide
Compound	pIC50
O=C(O)[C@@H](CCO[C@@H]1CCCN(CCCc2ccc3c(n2)NCCC3)C1)Nc1ncnc2cc(C(F)(F)F)ccc12 [Compound 497]	> 7.00
O=C(N[C@@H](CCO[C@@H]1CCCN(CCCc2ccc3c(n2)NCCC3)C1)C(=O)O)c1cc(Cl)cc(Cl)c1 [Compound 488]	> 7.00
O=C(O)C[C@H](NC(=O)[C@@H]1CCCN(CCCc2ccc3c(n2)NCCC3)C1)c1cccc2c1OCO2 [Compound 614]	> 7.00

Now consider a different compound.
Fill in: αvβ6 (Homo sapiens, UniProt P06756+P18564) pIC50 for O=C(NC[C@@H](C(=O)O)c1cccc2c1CCCC2)[C@@H]1CCCN(CCCc2ccc3c(n2)NCCC3)C1 [Compound 253-B] = < 6.00

---

# Measured on: αvβ6 (Homo sapiens, UniProt P06756+P18564)
# Experiment: Solid Phase Integrin αvβ6 Assay
# Description: The compounds exemplified in this document were tested for their ability to inhibit αvβ1 and αvβ6 in below described solid phase integrin assays. Solid Phase Integrin αvβ6 Assay 96-well microtiter plates (4 HBX Immulon; Thermo Fisher Scientific, Waltham, MA) were coated with 100 μL/well of 1 μg/mL recombinant TGFb1-LAP in TBS at 4° C., overnight. […] Bound protein was detected using the substrate TMB. […]
pIC50: −log10 of the molar value.
Measured property: pIC50

For orientation, consider the following solved cases.
Molecule	Measured on	Measured property	Endpoint result
O=C(O)C[C@@H](CO[C@@H]1CCCN(CCCc2ccc3c(n2)NCCC3)C1)c1cccc(N2CCCC2=O)c1	αvβ6 (Homo sapiens, UniProt P06756+P18564)	pIC50	> 7.00
O=C(CC[C@@H](NC(=O)C12CCC(CC1)CC2)C(=O)O)N[C@@H]1CCN(C(=O)CCCc2ccc3c(n2)NCCC3)C1	αvβ6 (Homo sapiens, UniProt P06756+P18564)	pIC50	< 6.00
O=C(NC[C@H](C(=O)O)c1ccc(F)c(-c2ccccc2)c1F)[C@@H]1CCCN(CCCc2ccc3c(n2)NCCC3)C1	αvβ6 (Homo sapiens, UniProt P06756+P18564)	pIC50	6.00 to 7.00

So, O=C(O)[C@@H](CO[C@@H]1CCCN(CCCc2ccc3c(n2)NCCC3)C1)Nc1ncnc2ccccc12 ? Its pIC50 was < 6.00

get_value(item= O=C(N[C@@H](CCO[C@@H]1CCCN(CCCc2ccc3c(n2)NCCC3)C1)C(=O)O)c1ccccc1 , readout=pIC50) returns > 7.00

// pIC50 value for O=C(O)C[C@@H](CO[C@@H]1CCCN(CCCc2ccc3c(n2)NCCC3)C1)c1ccccc1 : > 7.00

The molecule listed as CN(C[C@@H]1CCCN(CCCc2ccc3c(n2)NCCC3)C1)[C@@H](CC(=O)O)c1cccc(Br)c1 has a reported pIC50 of < 6.00

// pIC50 lookup, molecule = O=C(N[C@@H](CNC(=O)[C@@H]1CCCN(CCCc2ccc3c(n2)NCCC3)C1)C(=O)O)C1CC2CCC1CC2 (some centres unmarked) [Compound 285] , result: > 7.00

---

// reported IC50 for each item listed
# Measured on: αvβ6 (Homo sapiens, UniProt P06756+P18564)
# Experiment: Solid Phase Integrin αvβ6 Assay

Record C[C@H]1C[C@@H](C(=O)NC[C@H](C(=O)O)c2cccc(-c3ccccc3)c2)CN(CCCc2ccc3c(n2)NCCC3)C1 [Compound 631] , field IC50: < 100 nM

Entry O=C(O)[C@@H](CCO[C@@H]1CCCN(CCCc2ccc3c(n2)NCCC3)C1)Nc1ncnc2sccc12 [Compound 498] , IC50 reported as < 100 nM

---

# Measured on: αvβ6 (Homo sapiens, UniProt P06756+P18564)
# Experiment: Solid Phase Integrin αvβ6 Assay
Each entry below carries its recorded IC50.

For orientation, consider the following solved cases.
Molecule	IC50
O=C(O)CC(NC(=O)[C@@H]1CCCN(CCCc2ccc3c(n2)NCCC3)C1)c1cc(C(F)(F)F)cc(C(F)(F)F)c1 (stereo partly shown)	< 100 nM
O=C(N[C@@H](CNC(=O)[C@@H]1CCCN(CCCc2ccc3c(n2)NCCC3)C1)C(=O)O)c1cc(Cl)cc(Cl)c1	< 100 nM
O=C(Nc1ccccc1)N[C@@H](CNC(=O)[C@@H]1CCCN(CCCc2ccc3c(n2)NCCC3)C1)C(=O)O	< 100 nM
Cc1csc2c(N[C@@H](CNC(=O)[C@@H]3CCCN(CCCc4ccc5c(n4)NCCC5)C3)C(=O)O)ncnc12	< 100 nM
O=C(O)[C@@H](CCO[C@@H]1CCCN(CCCc2ccc3c(n2)NCCC3)C1)Nc1ncnc2cc(F)c(F)cc12	100 to 1000 nM
O=C(O)[C@H](CCO[C@@H]1CCCN(CCCc2ccc3c(n2)NCCC3)C1)NC(=O)[C@@H]1CCCN1S(=O)(=O)c1ccccc1	< 100 nM
O=C(N[C@@H](CNC(=O)[C@@H]1CCCN(CCCc2ccc3c(n2)NCCC3)C1)C(=O)O)C1CCOCC1	< 100 nM
O=C(O)CC(CC(=O)N[C@H]1CCN(CCCCc2ccc3c(n2)NCCC3)C1)c1ccccc1 (stereo partly shown)	100 to 1000 nM
O=C(O)C[C@@H](CO[C@@H]1CCCN(CCCc2ccc3c(n2)NCCC3)C1)c1cccc(-c2ccccc2)c1	100 to 1000 nM
O=C(O)C[C@@H](NC(=O)[C@@H]1CCCN(CCCc2ccc3c(n2)NCCC3)C1)c1ccc2c(c1)C1(CC2)CC1	100 to 1000 nM

In plain terms, CN1CCc2ccc(S(=O)(=O)N[C@@H](CNC(=O)[C@@H]3CCCN(CCCc4ccc5c(n4)NCCC5)C3)C(=O)O)cc21 has a documented IC50 of < 100 nM

Briefly, IC50 measured for O=C(CC[C@@H](NC(=O)[C@@H]1CCCN1S(=O)(=O)c1ccccc1)C(=O)O)N[C@H]1CCN(CCCCc2ccc3c(n2)NCCC3)C1 : > 1000 nM

Recorded IC50 (molecule O=C(O)C[C@H](NC(=O)[C@@H]1CCCN(CCCc2ccc3c(n2)NCCC3)C1)c1cccc(Oc2ccccc2)c1 ): < 100 nM
